Molecular target: T1, human MSLN-R2-his protein (human, UniProt Q13421 391-486)
T1 construct: also called human MSLN-R2 protein; hMSLN-R2-his; not shown: His tag
T1 sequence (Q13421 other isoform, or with tags, fused parts or gaps): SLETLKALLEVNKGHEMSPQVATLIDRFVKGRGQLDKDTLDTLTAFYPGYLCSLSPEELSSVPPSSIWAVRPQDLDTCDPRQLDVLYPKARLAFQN
Experiment: ELISA, coated antigen; antibody 0.001 nM
endpoint-label: OD450 (OD450)
Answers are plain numbers, in OD450.

OD450 lookup needed for S009-F5-9.16 (antibody, human IgG1, kappa, V domains shown, Human-murine chimeric antibody, human IgG1/kappa constant regions) VH: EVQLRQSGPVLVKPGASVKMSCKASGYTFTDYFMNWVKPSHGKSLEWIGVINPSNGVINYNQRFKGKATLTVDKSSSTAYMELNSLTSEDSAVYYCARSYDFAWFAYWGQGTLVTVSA VL: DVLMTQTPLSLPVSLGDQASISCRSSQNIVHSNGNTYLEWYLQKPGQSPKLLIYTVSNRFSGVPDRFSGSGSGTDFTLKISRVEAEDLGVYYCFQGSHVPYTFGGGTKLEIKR , thanks.
0.04

// provenance: patent US20250250357A1
